target: T1, ActRIIB-Fc homodimer (UniProt Q13705 19-137)
T1 construct: extracellular domain; also called ActRIIB homodimer
T1 sequence (looked up): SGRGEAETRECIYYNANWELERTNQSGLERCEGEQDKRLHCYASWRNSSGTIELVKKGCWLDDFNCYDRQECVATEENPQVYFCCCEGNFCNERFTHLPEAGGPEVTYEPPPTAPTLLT
protocolDetails: Biacore SPR
Description: Ligands were injected and allowed to flow over the captured receptor protein.
metric: Kd (nM)

a. BMP9 (ligand, UniProt Q9UK05 320-429, looked up, also called GDF2) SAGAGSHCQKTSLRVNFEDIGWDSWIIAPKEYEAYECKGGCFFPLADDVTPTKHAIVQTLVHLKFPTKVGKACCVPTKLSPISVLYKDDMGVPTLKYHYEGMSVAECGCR
b. activin A (ligand, UniProt P08476 311-426, looked up) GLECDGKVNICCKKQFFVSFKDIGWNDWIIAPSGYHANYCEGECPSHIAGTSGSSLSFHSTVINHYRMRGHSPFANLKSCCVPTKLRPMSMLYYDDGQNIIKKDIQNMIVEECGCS
Would you kindly point out which of a and b has the smaller Kd figure? // caller expects the label of the chosen entry b
(b: 0.015 nM, a: 0.034 nM)

P. GDF11 (ligand, UniProt O95390 299-407, looked up, also called BMP11) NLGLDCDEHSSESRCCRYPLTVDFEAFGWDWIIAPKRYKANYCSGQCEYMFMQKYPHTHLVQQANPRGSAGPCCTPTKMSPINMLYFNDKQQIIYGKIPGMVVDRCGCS
Q. GDF3 (ligand, UniProt Q9NR23 251-364, looked up) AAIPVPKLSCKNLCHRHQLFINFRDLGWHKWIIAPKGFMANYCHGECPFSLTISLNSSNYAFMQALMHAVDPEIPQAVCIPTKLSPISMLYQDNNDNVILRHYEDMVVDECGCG
R. activin B (ligand, UniProt P09529 293-407, looked up) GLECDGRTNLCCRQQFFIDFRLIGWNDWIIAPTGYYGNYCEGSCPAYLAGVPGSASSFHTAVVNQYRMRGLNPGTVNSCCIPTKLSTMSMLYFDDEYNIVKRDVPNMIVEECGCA
S. BMP10 (ligand, UniProt O95393 317-424, looked up) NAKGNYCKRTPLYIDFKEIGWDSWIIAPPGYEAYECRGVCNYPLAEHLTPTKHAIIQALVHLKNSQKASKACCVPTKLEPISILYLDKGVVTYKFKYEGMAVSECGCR
Number of binders to sort: 4. Sort criterion: Kd, ascending. List labels; respect the requested ordering. S, R, P, Q

Origin of the recorded values: patent US20190225669A1
